microsomal CLint at 1 μM for assorted molecules
# METHOD_DESCRIPTION: Metabolic stability evaluation, human liver microsomes
# Assay type: in vitro ADME
# EXPERIMENTAL_SETUP: pH 7.4, 1 μM compound, 0.5 mg/mL protein, 37° C., read-out: human liver microsome CLint
# Method: Microsomal experiments: human liver microsomes: 0.5 mg/mL, Xenotech; rat liver microsomes: 0.5 mg/mL, Xenotech; coenzyme (NADPH/NADH): 1 mM, Sigma Life Science; magnesium chloride: 5 mM, 100 mM phosphate buffer agent (pH 7.4). […] Data analysis: The peak areas of the corresponding compounds and the internal standard were detected by LC-MS/MS system, and the ratios of the peak areas of the compounds to the internal standard were calculated.
Give just the numeric value; µL/min/mg need not be written.

Answered cases to consult:
INSERT INTO measurements (molecule, unit_info, assay_result) VALUES
  ('[2H]C1([2H])CC([2H])([2H])[C@@]([2H])(c2cc(F)ccc2F)N1c1ccn2ncc(NC(=O)N3CC[C@H](O)C3)c2n1 [Compound L-7]', 'µL/min/mg', 20.6),
  ('[2H]C1([2H])C[C@H](c2cc(F)ccc2F)N(c2ccn3ncc(NC(=O)N4CC[C@H](O)C4)c3n2)C1 [Compound L-4]', 'µL/min/mg', 21),
  ('[2H]C1([2H])C[C@H](O)C([2H])([2H])N1C(=O)Nc1cnn2ccc(N3CCC[C@@H]3c3cc(F)ccc3F)nc12 [Compound L-1]', 'µL/min/mg', 18.2);

Reported microsomal CLint at 1 μM of O=C(Nc1cnn2ccc(N3CCC[C@@H]3c3cc(F)ccc3F)nc12)N1CC[C@H](O)C1 [LOXO-101, reference compound] : 21.3

Reported microsomal CLint at 1 μM of [2H]C1([2H])C[C@H](O)C([2H])([2H])N1C(=O)Nc1cnn2ccc(N3CCC([2H])([2H])C3([2H])c3cc(F)ccc3F)nc12 (stereo in doubt) [Compound L-3] : 19.1

Origin of the recorded values: patent US11453672B2
